Tested on: Human gammaherpesvirus 4
ASSAY_EXPLANATION: Effective concentration to show 50% of activity was measured on Epstein Barr virus(EBV) cell culture
Assay type: functional, organism-based
ATTRIBUTE_MEASURED: EC50 (µM)

>>> endpoint_result("O=c1[nH]c(=O)n([C@H]2O[C@@H](CO)[C@H](O)[C@H]2O)cc1/C=C/Br (stereo in doubt)")
47

----------
Test system: Human alphaherpesvirus 3
ASSAY_EXPLANATION: Effective concentration to show 50% of activity was measured on varicella zoster virus(VZV) cell culture
Type: functional, organism-based
STATED_CONDITIONS: Human alphaherpesvirus 3
Reported EC50 values for the following molecules.
ATTRIBUTE_MEASURED: EC50 (nM)

>>> endpoint_result("O=c1[nH]c(=O)n([C@H]2C[C@H](O)[C@@H](CO)O2)cc1/C=C/Br")
50
>>> endpoint_result("O=c1[nH]c(=O)n([C@@H]2CO[C@H](CO)O2)cc1/C=C/Cl")
150

----------
ASSAY_EXPLANATION: Effective concentration to show 50% of activity was measured on herpes simplex virus-1 KOS strain cell culture.
Assay type: functional, Human alphaherpesvirus 1
pEC50: −log10 of the molar value.
Reported pEC50 values for the following molecules.
ATTRIBUTE_MEASURED: pEC50

>>> endpoint_result("O=c1[nH]c(=O)n([C@H]2CO[C@H](CO)O2)cc1/C=C/Br")
"< 4.30"
>>> endpoint_result("O=c1[nH]c(=O)n([C@@H]2CO[C@H](CO)O2)cc1/C=C/Br")
4.44
>>> endpoint_result("O=c1[nH]c(=O)n([C@@H]2CO[C@H](CO)O2)cc1/C=C/Cl")
4.74
>>> endpoint_result("Nc1nc2c(ncn2COCCO)c(=O)[nH]1")
4.87
>>> endpoint_result("O=c1[nH]c(=O)n(C2CS[C@@H](CO)O2)cc1/C=C/Br (some centres undefined)")
"< 4.30"
>>> endpoint_result("O=c1[nH]c(=O)n([C@H]2C[C@H](O)[C@@H](CO)O2)cc1/C=C/Br")
"< 4.30"
>>> endpoint_result("O=c1[nH]c(=O)n([C@H]2O[C@@H](CO)[C@H](O)[C@H]2F)cc1/C=C/Br")
"< 4.30"
>>> endpoint_result("O=c1[nH]c(=O)n([C@H]2O[C@@H](CO)[C@H](O)[C@@H]2F)cc1/C=C/Br")
"< 4.30"
>>> endpoint_result("O=c1[nH]c(=O)n([C@H]2CO[C@H](CO)O2)cc1/C=C/Cl")
"< 4.30"
>>> endpoint_result("O=c1[nH]c(=O)n([C@H]2CO[C@H](CO)O2)cc1/C=C/I")
"< 4.30"
>>> endpoint_result("O=c1[nH]c(=O)n([C@@H]2CO[C@H](CO)O2)cc1/C=C/I")
4.48
>>> endpoint_result("O=c1[nH]c(=O)n([C@H]2O[C@@H](CO)[C@H](O)[C@H]2O)cc1/C=C/Br (stereo in doubt; 4)")
"< 4.30"
>>> endpoint_result("O=c1[nH]c(=O)n(C2CO[C@@H](CO)O2)cc1/C=C/Br (some centres undefined)")
"< 4.30"
>>> endpoint_result("O=c1[nH]c(=O)n([C@@H]2CO[C@@H](CO)O2)cc1/C=C/Br")
"< 4.30"
